system: MCF7 cells; assay: MTT antiproliferative activity assay, MCF7; assay type: cell-based; details: IC50 against MRC5 divided by IC50 against MCF7
metric name: Selectivity Index MCF7
// no unit string in output, number only

Reference set, count: 2
>>> df
                                   molecule             metric_name  measured
0  Cc1ccc(C=Nc2c(C#N)c3n(c2C(=O)Nc2ccc(F)cc2)CCC3)cc1 [Compound 16d]  Selectivity Index MCF7      0.34
1  N#Cc1c(N=Cc2ccc(F)cc2)c(C(=O)Nc2ccc(F)cc2)n2c1CCC2 [Compound 16f]  Selectivity Index MCF7      0.03

Provide value of Selectivity Index MCF7 for this record tested with MCF7 cells: COc1ccc(NC(=O)c2c(N=Cc3ccc(N(C)C)cc3)c(C#N)c3n2CCC3)cc1 [Compound 16a]
0.03

Further, for N#Cc1c(N=Cc2ccc(Cl)cc2)c(C(=O)Nc2ccc(F)cc2)n2c1CCC2 [Compound 16h] ?
0.06
